- assayed-target: CDK2/CycA (Homo sapiens (Human), UniProt P24941)
- test-description: Z'LYTE kinase assay for CDK2/CycA at Km ATP
- Type: biochemical
- cond: read-out: IC50 CDK2 Z′LYTE kinase assay
pIC50: −log10 of the molar value.
Hi, to clarify the labels: True covers pIC50 from 8 upward, False covers anything below 8.

Q) Check the entry CN(C)C/C=C/C(=O)Nc1cccc(CN2CCC(NC(=O)c3n[nH]cc3NC(=O)c3c(F)cc(F)cc3F)CC2)c1 : does pIC50 equal or exceed 8?
A) False

Q) Also, C=CC(=O)Nc1cccc(CN2CCC(NC(=O)c3n[nH]cc3NC(=O)c3c(Cl)cccc3OC)CC2)c1 please.
A) False

Q) Also, CN(C)C/C=C/C(=O)Nc1cccc(S(=O)(=O)N2CCC(NC(=O)c3n[nH]cc3NC(=O)c3c(F)cc(F)cc3F)CC2)c1 please.
A) True

Q) Also, C=CC(=O)Nc1cccc(S(=O)(=O)N2CCC(NC(=O)c3n[nH]cc3NC(=O)c3c(Cl)cc(Cl)cc3Cl)CC2)c1 please.
A) False

Q) Also, CN(C)C/C=C/C(=O)Nc1cccc(S(=O)(=O)N2CCC(N(C)C(=O)c3n[nH]cc3NC(=O)c3c(Cl)cccc3Cl)CC2)c1 please.
A) False

Q) Also, CN(C)C/C=C/C(=O)Nc1cccc(S(=O)(=O)N2CCC(NC(=O)c3n[nH]cc3NC(=O)C3CCC(F)(F)CC3)CC2)c1 please.
A) False

Q) Also, COc1cccc(Cl)c1C(=O)Nc1c[nH]nc1C(=O)NC1CCN(S(=O)(=O)c2cccc(NC(=O)/C=C/CN(C)C)c2)CC1 please.
A) True

Q) Also, CN(C)C/C=C/C(=O)Nc1cccc(S(=O)(=O)N2CCC(NC(=O)c3c(NC(=O)c4c(Cl)cccc4Cl)cnn3C)CC2)c1 please.
A) False

Q) Also, CN(C)C/C=C/C(=O)Nc1cccc(S(=O)(=O)N2CCC(NC(=O)c3n[nH]c(-c4ccccc4)c3NC(=O)c3c(Cl)cccc3Cl)CC2)c1 please.
A) False

Q) Also, COc1ccc(Cl)c(C(=O)Nc2c[nH]nc2C(=O)NC2CCN(S(=O)(=O)c3cccc(NC(=O)/C=C/CN(C)C)c3)CC2)c1Cl please.
A) True

---

- assayed-target: CDK16/CycY (Homo sapiens (Human), UniProt Q00536)
- Sequence (Q00536 whole entry): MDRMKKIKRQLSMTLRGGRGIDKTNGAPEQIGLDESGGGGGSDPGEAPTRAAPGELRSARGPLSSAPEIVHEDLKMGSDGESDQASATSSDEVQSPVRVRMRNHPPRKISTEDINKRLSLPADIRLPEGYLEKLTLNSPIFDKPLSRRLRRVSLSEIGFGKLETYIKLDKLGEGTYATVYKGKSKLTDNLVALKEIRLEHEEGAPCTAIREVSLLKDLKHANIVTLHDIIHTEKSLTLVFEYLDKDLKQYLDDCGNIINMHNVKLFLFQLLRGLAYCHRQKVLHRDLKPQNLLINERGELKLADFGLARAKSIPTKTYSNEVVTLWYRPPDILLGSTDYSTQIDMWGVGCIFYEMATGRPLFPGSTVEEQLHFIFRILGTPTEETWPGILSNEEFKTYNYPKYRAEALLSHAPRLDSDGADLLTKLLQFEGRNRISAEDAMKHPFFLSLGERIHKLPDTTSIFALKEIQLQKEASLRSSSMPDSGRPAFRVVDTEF
- Sequence (Q8ND76 whole entry partner): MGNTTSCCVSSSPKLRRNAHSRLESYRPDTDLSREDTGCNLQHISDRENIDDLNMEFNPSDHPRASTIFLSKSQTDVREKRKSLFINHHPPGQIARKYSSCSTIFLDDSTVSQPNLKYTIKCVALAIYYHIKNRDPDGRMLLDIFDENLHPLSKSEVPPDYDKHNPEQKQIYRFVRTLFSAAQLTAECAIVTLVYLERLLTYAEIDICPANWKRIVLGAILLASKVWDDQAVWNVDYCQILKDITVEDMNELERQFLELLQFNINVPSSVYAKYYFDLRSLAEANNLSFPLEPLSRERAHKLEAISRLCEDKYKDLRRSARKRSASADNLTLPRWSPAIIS
- test-description: Lanthascreen Eu kinase binding assay for CDK16/CycY
- cond: read-out: IC50 CDK16 Lanthascreen binding
Would you mind telling me the reported IC50 of each entry?
Numbers only; they are read as nM.

Q) Can you look up the measured IC50 of CN(C)C/C=C/C(=O)Nc1cccc(S(=O)(=O)N2CCC(NC(=O)c3n[nH]cc3NC(=O)C3CCC(F)(F)CC3)CC2)c1 for me?
A) 140

Q) Also, COc1cccc(F)c1C(=O)Nc1c[nH]nc1C(=O)NC1CCN(Cc2cccc(NC(=O)/C=C/CN(C)C)c2)CC1 please.
A) 7.4

Q) Also, CN(C)C/C=C/C(=O)Nc1ccc(N2CCC(NC(=O)c3n[nH]cc3NC(=O)c3c(Cl)cccc3Cl)CC2)cc1 please.
A) 27.7

---

Would you mind telling me the reported pIC50 of each entry?
- System: HCT116 cells
- test-description: Antiproliferation assay, Cell Titer Glo, 72 hours
- Assay type: cell-based
- cond: Homo sapiens, HCT-116, 72 h
pIC50: −log10 of the molar value.

Q) Can you look up the measured pIC50 of CN(C)C/C=C/C(=O)Nc1ccc(S(=O)(=O)N2CCC[C@@H](NC(=O)c3n[nH]cc3NC(=O)c3c(Cl)cccc3Cl)C2)cc1 [FMF-04-056-2] for me?
A) < 5.00

Q) Also, C=CC(=O)Nc1cccc(S(=O)(=O)N2CCC(NC(=O)c3n[nH]c(C)c3NC(=O)c3c(Cl)cccc3Cl)CC2)c1 [FMF-04-181-1] please.
A) < 5.00

Q) Also, C=CC(=O)Nc1cccc(CN2CC[C@@H](NC(=O)c3n[nH]cc3NC(=O)c3c(Cl)cccc3Cl)C2)c1 [FMF-05-071-1] please.
A) > 9.00

Q) Also, CN(C)C/C=C/C(=O)Nc1cccc(C(=O)N2CCC[C@@H](NC(=O)c3n[nH]cc3NC(=O)c3c(Cl)cccc3Cl)C2)c1 [FMF-04-059-2] please.
A) < 5.00

// provenance: patent US12187701B2
